Recorded T/C, one value per entry.
Test system: P388 leukemia ip, CD2F1 mice, survival T/C
Experimental Details: NCI In Vivo Anticancer Drug Screen. Data for tumor model P388 Leukemia (intraperitoneal) in CD2F1 (CDF1) mice
Condition Summary: endpoint: median survival time; dose: 50.0 mg/kg/injection; schedule: Q01DX009 (ip); vehicle: Klucel (hydroxypropylcellulose) (HPC); higher = longer survival
Inconclusive results and toxic doses are left out.

Check out these entries, answers already filled in.
1. Cc1nn(C(=O)c2ccncc2)c(C)c1N=Nc1cccc(Cl)c1 :: 99 % of control
2. COc1nc(Nc2ccccc2OC)nc(OC)n1 :: 101 % of control

// field: T/C; key: Nc1nc(CCl)nc(Nc2ccccc2)n1 ; value = 101 % of control

###

System: P388 leukemia ip, CD2F1 mice, survival T/C
Experimental Details: NCI In Vivo Anticancer Drug Screen. Data for tumor model P388 Leukemia (intraperitoneal) in CD2F1 (CDF1) mice
Condition Summary: endpoint: median survival time; dose: 100.0 mg/kg/injection; schedule: Q01DX001 (ip); vehicle: saline with Tween-80; higher = longer survival
Inconclusive results and toxic doses are left out.
Attribute Measured: T/C

Below are worked cases with known answers.
1. CC(C)C1=CCC2C(=C1)CCC1C(C)(C(N)=O)CCCC21C (stereo not given) :: 100 % of control
2. NC1CC2(CCC1=O)c1ccccc1-c1ccccc12 (stereo not given) :: 105 % of control
3. C/C(=N\N=c1\sc2ccccc2n1CC(=O)O)c1ccc([N+](=O)[O-])cc1 :: 93 % of control
4. C=C1C(=O)O[C@@H]2C[C@@H](C)[C@@H]3CC(=O)OC[C@@]3(C)C[C@H]12 :: 117 % of control
5. CCCn1c(Cl)c(/C=N\Nc2ccc([N+](=O)[O-])cc2)c2ccccc21 :: 103 % of control
6. Nc1nc(N)c2c(ccc3nc(-c4ccccc4)c(-c4ccccc4)nc32)n1 :: 87 % of control
7. COC(=O)c1ccccc1N=NN(C)CC1OC2OC(C)(C)OC2C1OC (stereo not given) :: 99 % of control
8. CC1(C)CN2C(c3ccccc3)=NN(c3ccccc3)C2(C)C1 (stereo not given) :: 98 % of control

Reported T/C of N#CCCN(CCC#N)c1ccc(/C=C2/C=C(c3ccccc3)OC2=O)cc1 : 97 % of control

Briefly, T/C measured for C=CCSc1nc(-c2ccc(Cl)cc2)c(C#N)c(=O)[nH]1 : 100 % of control

###

System: P388 leukemia ip, CD2F1 mice, survival T/C
Experimental Details: NCI In Vivo Anticancer Drug Screen. Data for tumor model P388 Leukemia (intraperitoneal) in CD2F1 (CDF1) mice
Condition Summary: endpoint: median survival time; dose: 200.0 mg/kg/injection; schedule: Q04DX002 (ip); vehicle: saline with Tween-80; higher = longer survival
Toxic doses and inconclusive results are not listed.
Each record here notes measured T/C.

Recorded results for 5 compounds are shown here.
1. Cc1cccc(-n2c(-c3ccc(Cl)cc3)cs/c2=N\Nc2nnc(-c3ccccc3)c(-c3ccccc3)n2)c1 :: 87 % of control
2. COc1ccccc1C1OC(c2ccccc2OC)C2CCN(C)C2(C)O1 (stereo not drawn) :: 91 % of control
3. CC(=O)c1c(OCC(O)CN2CCCCC2)ccc2c(C)cc(=O)oc12 (stereo not drawn) :: 101 % of control
4. CC(=O)OC1Cc2c(cc3c4c(cccc24)N(C(C)=O)C3)N(C)C1 (stereo not drawn) :: 108 % of control
5. OC[C@@H](O)C[C@H](CO)Cc1ccc2c(c1)OCO2 :: 99 % of control

For record CCOC(=O)c1cccc([N+](=O)[O-])c1C(=O)OCCN(CC)CC the listed T/C is 122 % of control

compound Cc1ccc(C(=O)NCCN2CCN3Cc4[nH]c5ccccc5c4CC3C2)cc1 (stereo not drawn) , T/C observed: 105 % of control

Input CCn1cc(C(=O)NC(C)C(=O)NC(C)P(=O)(O)O)c(=O)c2ccc(C)nc21 (stereo not drawn) . Output T/C: 102 % of control

// field: T/C; key: Cc1cc2c(cc1C)NC(c1ccc(C(N)=S)cc1)N2 ; value = 86 % of control

C=CCC(C(=O)O)C1(C(=O)O)CCCCCC1 (stereo not drawn) has a reported T/C of 93 % of control

So, CCOC(=O)C(=CNc1cccc2cccnc12)C(=O)OCC ? Its T/C was 99 % of control

# T/C of Cc1nn(C(=S)S)c(C)c1N=Nc1ccccc1C(F)(F)F = 89 % of control

T/C reported for this compound CN1C=CC2C(C#N)CC2C1=O (stereo not drawn) : 110 % of control
